assay: compounds raising PGC1a acetylation signal, primary screen, PGC1a modulator project, cell-based, U2OS, AlphaScreen, signal-increasing mode (AID 651723); conditions: overnight, at 15.6 µM, stronger effect = higher value
Hit rate of the full screen: of about 350,000 compounds, about 740 (0.21%) were called active. This is one part of a sample in which actives are shown more often than they occur.
reported.endpoint: activation (%)
Give bare numbers, in %.

Worked cases, answers included:
- cpd.smiles: "COc1ccc(C(=O)NN(C)c2nc(-c3ccccc3)cc(C)c2S(C)(=O)=O)cc1"
  experimental.value: 87.7
- cpd.smiles: "NC(=O)N/N=C\\c1cccs1"
  experimental.value: -76.7

stdin: Tell me the measured activation of CCOC(=O)c1c(NC(=O)CSc2cn(CC)c3ccccc23)sc2c1CCC2 , please.
stdout: 67.2
